The values you see were collected from ChEMBL document CHEMBL3885861.

- Species on record: Rattus norvegicus
- protocolDescription: Open TG-GATES - Regimen: Single
- Type: toxicity, organism-based, Sprague-Dawley
- Set-up: regimen Single, gender Male, age 6 weeks
- conditionSet: in vivo, po, 1000 mg/kg, 3 h, tissue Blood, route gavage, dose level High
measureName: Bas (%)

compound: CCc1cc(C(N)=S)ccn1 [ETHIONAMIDE]
assayResult: 0

compound: O=C(O)c1cn(C2CC2)c2cc(N3CCNCC3)c(F)cc2c1=O
assayResult: 0

compound: Clc1ccccc1CN1CCc2sccc2C1
assayResult: 0.2

compound: O=C(O)c1cc(/N=N/c2ccc(S(=O)(=O)Nc3ccccn3)cc2)ccc1O
assayResult: 0

compound: C[C@H](CS)C(=O)N1CCC[C@H]1C(=O)O
assayResult: 0
